growth for assorted molecules
- System: SK-OV-3 ovarian
- test_name: NCI-60 one-dose screen, 48 h (100 = growth as untreated, 0 = no growth, -100 = all killed)
- test_parameters: 10 µM unless noted
The panel holds about 83,000 compounds, 20% with a hit somewhere; the sample as a whole holds those more often.

{"columns": ["molecule", "unit_abbrev", "growth"],
 "data": [
  ["COc1ccccc1CNc1c2ccccc2nc2ccccc12", "%", 61.4],
  ["COc1ccc(C(=O)C/C(=C\\c2ccc(Cl)cc2)C(=O)NCc2ccccc2)cc1", "%", 79.3],
  ["COCCn1cc(-c2csc(-c3cn(C)c4ccc(Br)cc34)n2)c2cccnc21", "%", 71.9],
  ["CCOC(=O)c1cc2c(n1Cc1cc(OC)c(OC)c(OC)c1)-c1nc(N)sc1CCC2", "%", 29.3],
  ["CCOC(=O)n1cc(-c2nonc2-c2cn(C(=O)OCC)c3ccc(Br)cc23)c2ccccc21", "%", 79.8],
  ["CCCCCCCCCCCCCCCCOCCCOP(=O)(O)C1CCCN(O)C1=O (stereo not given)", "%", 34.4],
  ["O=C(Nc1nc2ccccc2s1)c1ccc(F)cc1", "%", 108],
  ["COC(=O)[C@]1(C)CCC[C@]2(C)[C@H]3C[C@H]4C(C(C)C)=C[C@]3(CC[C@H]21)[C@@H]1C(=O)CC[C@H](OCCC#N)[C@@H]14", "%", 109],
  ["Cc1cc(N2CCN(CCNc3ccnc4cc(Cl)ccc34)CC2)nc(N2CCOCC2)n1", "%", 85.2],
  ["CC(C)(C)CC(C)(C)NC(=O)Nc1ncccc1OCc1ccccc1", "%", 104],
  ["Cc1ccc(-c2nc(N3CCCNCC3)c3oc(-c4ccccc4)nc3n2)cc1", "%", 95.5],
  ["CC/C=C\\C[C@H](O)C/C=C1/C(=O)C=C[C@@H]1C/C=C\\CCCC(=O)N(C)C", "%", 21.8],
  ["CCN1C(=S)N(c2ccccc2)C2NC(=S)N(/N=C/C=C/c3ccccc3OC)C21 (stereo not given)", "%", 30.5],
  ["Cc1cccc(/C=C/c2c(C(=O)/C=C/c3ccccc3)c(C)nc3ccccc23)c1", "%", 33.7],
  ["O=S(=O)(c1ccccc1)n1cc2c(c1)-c1nc(Nc3ncccn3)sc1CC2", "%", 66],
  ["CC1CN(S(=O)(=O)c2oc(-c3ccc(Cl)cc3)nc2C#N)CC(C)O1 (stereo not given)", "%", 99.9],
  ["Cc1nc2sc(C(=O)Nc3cccc(Br)c3)c(N)c2cc1C(O)c1ccccc1 (stereo not given)", "%", 35.6],
  ["CC(C)(Sc1cc(C(C)(C)C)c(O)c(C(C)(C)C)c1)Sc1cc(C(C)(C)C)c(OC(=O)CCCC(=O)O)c(C(C)(C)C)c1", "%", 91.6],
  ["O=C(Nc1ccc(Oc2cccc(Cl)c2)c(Cl)c1)c1cnccn1", "%", 83.3],
  ["COc1ccc(F)cc1/C=C/C(=O)/C=C(/C=C/c1cc(F)ccc1OC)OB(F)F", "%", 97]
]}

###

- Test system: HCT-116 colon
- test_name: NCI-60 one-dose screen, 48 h (100 = growth as untreated, 0 = no growth, -100 = all killed)
- test_parameters: 10 µM unless noted
Compounds without any hit were thinned out: in the full panel of roughly 83,000, 20% have a hit. Active and inactive are the calls of the source. Rule for the calls: active = growth percent below 10; inactive = the rest.
Listed here: items and their measured growth.

{"columns": ["molecule", "target_desc", "growth"],
 "data": [
  ["Cn1cc(-c2csc(-c3c[nH]c4ccccc34)n2)c2cnccc21", "HCT-116 colon", "-59.7% (active)"],
  ["O=C1NC(=O)C(Cc2ccc(OCc3ccc(-c4ccc(Cl)cc4Cl)cc3)cc2)S1 (configuration not stated)", "HCT-116 colon", "38.6% (inactive)"],
  ["O=c1c2cccc3c(N4CCCC4)ccc(c32)c2nc3ccccc3n12", "HCT-116 colon", "54.7% (inactive)"],
  ["COc1cc2ncnc(Nc3ccc(S(=O)(=O)Nc4cc(C)on4)cc3)c2cc1OCCCN1CCN(c2ccc(F)cc2)CC1", "HCT-116 colon", "108% (inactive)"],
  ["CC1CN(S(=O)(=O)c2oc(-c3ccc(Cl)cc3)nc2C#N)CC(C)O1 (configuration not stated)", "HCT-116 colon", "-53.4% (active)"],
  ["CCO/C=N/C1=C(C#N)C(c2ccc(Cl)cc2)c2sc3c(F)cccc3c2O1 (configuration not stated)", "HCT-116 colon", "54.2% (inactive)"],
  ["Cn1cc(-c2csc(-c3c[nH]c4ccc(Br)cc34)n2)c2ccnc(Cl)c21", "HCT-116 colon", "49.8% (inactive)"],
  ["COc1ccc2c(c1)N(CCO)C1=C(C(=O)OC1)C2c1cccc(F)c1 (configuration not stated)", "HCT-116 colon", "4.87% (active)"],
  ["CCc1ncnc2c1ccn2C(C)c1ccc(OC)c(F)c1 (configuration not stated)", "HCT-116 colon", "18.8% (inactive)"],
  ["CCOC(=O)c1c2c(n3cccc(F)c13)C(=O)c1ncccc1C2=O", "HCT-116 colon", "-10.7% (active)"],
  ["CC(C)(C)CC(C)(C)NC(=O)Nc1ncccc1OCc1ccccc1", "HCT-116 colon", "75.2% (inactive)"],
  ["CC/C=C\\C[C@H](O)C/C=C1/C(=O)C=C[C@@H]1C/C=C\\CCCC(=O)N(C)C", "HCT-116 colon", "-63.4% (active)"],
  ["CCC(=O)Oc1ccc(-c2ccccc2)cc1Br", "HCT-116 colon", "104% (inactive)"],
  ["O=C1NC2(Nc3ccccc31)C(=O)Nc1c(Cl)cc(Cl)cc12 (configuration not stated)", "HCT-116 colon", "98.6% (inactive)"],
  ["COc1ccc(C/C(C)=C(\\c2ccc(Cl)cc2)c2ccc(OCCN3CCCCC3)cc2)cc1", "HCT-116 colon", "100% (inactive)"],
  ["COc1ccc2[nH]c(C(=O)N3CCN(C(=O)OCc4ccc5c(Cl)cc(Cl)c(O)c5n4)CC3)cc2c1", "HCT-116 colon", "-92.2% (active)"],
  ["COc1ccc2c(c1)CC[C@H](O)/C2=C/c1cc(OC)c(OC)c(OC)c1", "HCT-116 colon", "2.27% (active)"],
  ["Clc1ccc2c(c1)C(c1c[nH]c3ccccc13)(c1c[nH]c3ccccc13)CCO2", "HCT-116 colon", "56.5% (inactive)"],
  ["Cn1ccnc1C(=O)/C=C/c1ccc(CC(=O)Nc2cc(C(F)(F)F)cc(C(F)(F)F)c2)cc1", "HCT-116 colon", "51.6% (inactive)"],
  ["CCCCCN1C(=O)/C(=c2\\sc3n(c2=O)C2C(NN=3)N(CC)C(=O)N2CC)c2ccccc21 (configuration not stated)", "HCT-116 colon", "-72.1% (active)"],
  ["O=C1NC(=C(Cl)Cl)/C(=N\\S(=O)(=O)NCc2ccccc2)N1", "HCT-116 colon", "94.2% (inactive)"],
  ["CC1=C([Se]CC(OC(=O)CC[Se]c2ccccc2)C(=O)NC(C)(C)C)C(=O)c2ccccc2C1=O (configuration not stated)", "HCT-116 colon", "-61.9% (active)"]
]}
